Target: Glutamate receptor ionotropic, AMPA (Rattus norvegicus, UniProt P19490+P19491+P19492+P19493)
Test: AMPA receptor antagonistic activity as inhibition of depolarizations induced by 40 uM AMPA in rat cortical slice preparation
Type: functional
PROPERTY: IC50

Answered cases to consult:
- COMPOUND: "O=C(O)[C@H]1C[C@H]2CC(CCc3nnn[nH]3)CC[C@H]2CN1 (stereo partly drawn)"
  PROPERTY: "IC50"
  VAL: "> 100 µM"
- COMPOUND: "O=C(O)[C@@H]1C[C@H]2C[C@@H](CCCCc3nnn[nH]3)CC[C@H]2CN1"
  PROPERTY: "IC50"
  VAL: "27.6 µM"
- COMPOUND: "O=C(O)[C@@H]1C[C@H]2C[C@@H](NCc3nn[nH]n3)CC[C@H]2CN1"
  PROPERTY: "IC50"
  VAL: "69.3 µM"
- COMPOUND: "O=C(O)C1Cc2cc(CCc3nnn[nH]3)ccc2CN1 (stereo not drawn)"
  PROPERTY: "IC50"
  VAL: "> 100 µM"

[in] Entry O=C(O)[C@@H]1C[C@H]2C[C@@H](CCc3nn[nH]n3)CC[C@H]2CN1 [TEZAMPANEL ANHYDROUS] has what IC50?
[out] 6 µM

[in] And then `CN(Cc1nn[nH]n1)[C@H]1CC[C@H]2CN[C@H](C(=O)O)C[C@H]2C1` , what is it?
[out] > 100 µM

[in] And then `O=C(O)[C@@H]1C[C@H]2C[C@H](CCc3nnn[nH]3)CC[C@H]2CN1` , what is it?
[out] > 100 µM

[in] And then `O=C(O)[C@@H]1C[C@H]2C[C@@H](CCc3nnn[nH]3)CC[C@@H]2CN1` , what is it?
[out] > 100 µM

###

Target: Glutamate receptor ionotropic, AMPA (Rattus norvegicus, UniProt P19490+P19491+P19492+P19493)
Assay: Compound was tested for AMPA receptor antagonistic activity by measuring its ability to inhibit depolarizations induced by 40 uM quisqualic acid in rat cortical slice preparation.
Type: functional
PROPERTY: pIC50
Conceptually, pIC50 converts a concentration in mol/L into minus its log10.

[in] Entry `O=C(O)[C@@H]1C[C@H]2C[C@@H](CCCc3nnn[nH]3)CC[C@H]2CN1` has what pIC50?
[out] 4.66

###

Molecular target: Glutamate NMDA receptor
Assay: Binding affinity at N-methyl-D-aspartate glutamate receptor in rat cortical tissue by [3H]-CGS- 19755 displacement.
pIC50: −log10 of the molar value.
PROPERTY: pIC50

[1] O=C(O)[C@@H]1C[C@H]2C[C@@H](Cc3nnn[nH]3)CC[C@H]2CN1
[2] CC(Cc1nnn[nH]1)[C@H]1CC[C@H]2CN[C@H](C(=O)O)C[C@H]2C1 (some centres undefined)
[3] O=C(O)[C@@H]1C[C@H]2C[C@@H](OCc3nn[nH]n3)CC[C@H]2CN1
[in] Ordering: ascending pIC50. Rank the items, then write their labels in that order.
[out] 2, 3, 1

###

Target: Glutamate NMDA receptor
Test: Binding affinity at N-methyl-D-aspartate glutamate receptor in rat cortical tissue by [3H]-CGS- 19755 displacement.
pIC50: −log10 of the molar value.
PROPERTY: pIC50

- COMPOUND: "O=C(O)[C@@H]1NCC[C@H]2CC(CCc3nnn[nH]3)CC[C@H]21 (stereo partly drawn)"
  MEASURED_TARGET: "Glutamate NMDA receptor"
  pIC50: 4.89

[I] O=C(O)[C@@H]1C[C@H]2C[C@H](CCc3nnn[nH]3)CC[C@H]2CN1
[II] O=C(O)[C@@H]1C[C@H]2C[C@@H](C(Cc3nnn[nH]3)c3ccccc3)CC[C@H]2CN1 (stereo partly drawn)
[III] O=C(O)[C@@H]1C[C@H]2C[C@@H](CCCc3nnn[nH]3)CC[C@H]2CN1
[in] Sort ascending by pIC50. Rank the items, then write their labels in that order.
[out] I, III, II
(I: 4.22, III: 4.57, II: 4.82)
